For each of the compounds below, state its relative viability.
- Test system: NCI-H460
- assay_explanation: relative viability (nuclei count vs DMSO), 5 days (fraction); higher = more cells survive
- details: first compound 0.8 µM
No unit in the answer, only the number.

IN: Looking for the measured relative viability of Cc1cnc(-c2cnc(NCCNc3ccc(C#N)cn3)nc2-c2ccc(Cl)cc2Cl)[nH]1 + COc1cc2c(Oc3ccc(NC(=O)C4(C(=O)Nc5ccc(F)cc5)CC4)cc3F)ccnc2cc1OCCCN1CCOCC1 [Foretinib] (partner 0.25 µM) , can you help?
OUT: 0.981

IN: Also Cc1cnc(-c2cnc(NCCNc3ccc(C#N)cn3)nc2-c2ccc(Cl)cc2Cl)[nH]1 + CC(C)C[C@H](NC(=O)[C@H](Cc1ccccc1)NC(=O)c1cnccn1)B(O)O [Bortezomib] (partner 0.002 µM) ?
OUT: 1.07

IN: Also Cc1cnc(-c2cnc(NCCNc3ccc(C#N)cn3)nc2-c2ccc(Cl)cc2Cl)[nH]1 + CCNC(=O)c1noc(-c2cc(C(C)C)c(O)cc2O)c1-c1ccc(CN2CCOCC2)cc1 [Luminespib] (partner 0.01 µM) ?
OUT: 0.0345

IN: Also O=c1[nH]c2ccccc2n1C1CCN(CCCC(c2ccc(F)cc2)c2ccc(F)cc2)CC1 [Pimozide] + C[C@]1(O)C[C@@H](c2nc(-c3ccc4ccc(-c5ccccc5)nc4c3)c3c(N)nccn32)C1 [Linsitinib] (partner 1 µM) ?
OUT: 0.707

###

- Test system: A-427
- assay_explanation: relative viability (nuclei count vs DMSO), 5 days (fraction); higher = more cells survive
- details: first compound 0.01581 µM
measured_parameter: relative viability
No unit in the answer, only the number.

IN: Looking for the measured relative viability of COc1cc2nccc(Oc3ccc(NC(=O)Nc4cc(C)on4)c(Cl)c3)c2cc1OC [Tivozanib] + CCNC(=O)c1noc(-c2cc(C(C)C)c(O)cc2O)c1-c1ccc(CN2CCOCC2)cc1 [Luminespib] (partner 0.01 µM) , can you help?
OUT: 0.902

IN: Also Nc1ccn([C@@H]2O[C@H](CO)[C@@H](O)[C@@H]2O)c(=O)n1 [Cytarabine] + C[C@]1(O)C[C@@H](c2nc(-c3ccc4ccc(-c5ccccc5)nc4c3)c3c(N)nccn32)C1 [Linsitinib] (partner 1 µM) ?
OUT: 0.654

IN: Also COc1cc2nccc(Oc3ccc(NC(=O)Nc4cc(C)on4)c(Cl)c3)c2cc1OC [Tivozanib] + Cc1cc(Nc2cc(N3CCN(C)CC3)nc(Sc3ccc(NC(=O)C4CC4)cc3)n2)n[nH]1 [Tozasertib] (partner 0.1 µM) ?
OUT: 0.23

IN: Also Nc1ccn([C@@H]2O[C@H](CO)[C@@H](O)[C@@H]2O)c(=O)n1 [Cytarabine] + C[C@@H](Oc1cc(-c2cnn(C3CCNCC3)c2)cnc1N)c1c(Cl)ccc(F)c1Cl [Crizotinib] (partner 1 µM) ?
OUT: 0.414

###

- Test system: NCI-H1944
- assay_explanation: relative viability (nuclei count vs DMSO), 5 days (fraction); higher = more cells survive
- details: first compound 0.04 µM
measured_parameter: relative viability

IN: Looking for the measured relative viability of Cc1sc2c(c1C)C(c1ccc(Cl)cc1)=N[C@@H](CC(=O)OC(C)(C)C)c1nnc(C)n1-2 [JQ1] + C[C@@H](Oc1cc(-c2cnn(C3CCNCC3)c2)cnc1N)c1c(Cl)ccc(F)c1Cl [Crizotinib] (partner 1 µM) , can you help?
OUT: 1.02

IN: Also Cc1sc2c(c1C)C(c1ccc(Cl)cc1)=N[C@@H](CC(=O)OC(C)(C)C)c1nnc(C)n1-2 [JQ1] + CCNC(=O)c1noc(-c2cc(C(C)C)c(O)cc2O)c1-c1ccc(CN2CCOCC2)cc1 [Luminespib] (partner 0.01 µM) ?
OUT: 0.73

###

- Test system: NCI-H2126
- assay_explanation: relative viability (nuclei count vs DMSO), 5 days (fraction); higher = more cells survive
- details: first compound 0.5 µM
Could you mark each record Fulfilled if its relative viability falls strictly under 0.7, and Not fulfilled if it equals or exceeds it?

IN: Quick check: does COc1cc2nccc(Oc3ccc(NC(=O)Nc4cc(C)on4)c(Cl)c3)c2cc1OC [Tivozanib] + CC1(C)CCC(c2ccc(Cl)cc2)=C(CN2CCN(c3ccc(C(=O)NS(=O)(=O)c4ccc(N[C@H](CCN5CCOCC5)CSc5ccccc5)c(S(=O)(=O)C(F)(F)F)c4)cc3)CC2)C1 [Navitoclax] (partner 0.5 µM) have relative viability under 0.7?
OUT: Not fulfilled

IN: Also Nc1ccn([C@@H]2O[C@H](CO)[C@@H](O)[C@@H]2O)c(=O)n1 [Cytarabine] + Cc1cc(Nc2cc(N3CCN(C)CC3)nc(Sc3ccc(NC(=O)C4CC4)cc3)n2)n[nH]1 [Tozasertib] (partner 0.1 µM) ?
OUT: Fulfilled

IN: Also Nc1ccn([C@@H]2O[C@H](CO)[C@@H](O)[C@@H]2O)c(=O)n1 [Cytarabine] + CC(=O)Nc1cccc(-n2c(=O)n(C3CC3)c(=O)c3c(Nc4ccc(I)cc4F)n(C)c(=O)c(C)c32)c1 [Trametinib] (partner 0.02 µM) ?
OUT: Fulfilled

IN: Also Nc1ccn([C@@H]2O[C@H](CO)[C@@H](O)[C@@H]2O)c(=O)n1 [Cytarabine] + CS(=O)(=O)CCNCc1ccc(-c2ccc3ncnc(Nc4ccc(OCc5cccc(F)c5)c(Cl)c4)c3c2)o1 [Lapatinib] (partner 2 µM) ?
OUT: Fulfilled

IN: Also Nc1ccn([C@@H]2O[C@H](CO)[C@@H](O)[C@@H]2O)c(=O)n1 [Cytarabine] + CS(=O)(=O)N1CCN(Cc2cc3nc(-c4cccc5[nH]ncc45)nc(N4CCOCC4)c3s2)CC1 [Pictilisib] (partner 1 µM) ?
OUT: Fulfilled

IN: Also COc1cc2nccc(Oc3ccc(NC(=O)Nc4cc(C)on4)c(Cl)c3)c2cc1OC [Tivozanib] + NC(=O)Nc1cc(-c2cccc(F)c2)sc1C(=O)N[C@H]1CCCNC1 [AZD7762] (partner 0.2 µM) ?
OUT: Not fulfilled

IN: Also Nc1ccn([C@@H]2O[C@H](CO)[C@@H](O)[C@@H]2O)c(=O)n1 [Cytarabine] + N=C(N)NC(=N)NCCc1ccccc1 [Phenformin] (partner 250 µM) ?
OUT: Fulfilled

IN: Also COc1cc2nccc(Oc3ccc(NC(=O)Nc4cc(C)on4)c(Cl)c3)c2cc1OC [Tivozanib] + N=C(N)NC(=N)NCCc1ccccc1 [Phenformin] (partner 250 µM) ?
OUT: Fulfilled

###

- Test system: IA-LM
- assay_explanation: relative viability (nuclei count vs DMSO), 5 days (fraction); higher = more cells survive
- details: first compound 2.53 µM
Could you mark each record t if its relative viability falls strictly under 0.9, and f if it equals or exceeds it?

IN: Quick check: does Cc1cnc(-c2cnc(NCCNc3ccc(C#N)cn3)nc2-c2ccc(Cl)cc2Cl)[nH]1 + CS(=O)(=O)CCNCc1ccc(-c2ccc3ncnc(Nc4ccc(OCc5cccc(F)c5)c(Cl)c4)c3c2)o1 [Lapatinib] (partner 2 µM) have relative viability under 0.9?
OUT: t

IN: Also O=c1[nH]c2ccccc2n1C1CCN(CCCC(c2ccc(F)cc2)c2ccc(F)cc2)CC1 [Pimozide] + COc1cc2c(Oc3ccc(NC(=O)C4(C(=O)Nc5ccc(F)cc5)CC4)cc3F)ccnc2cc1OCCCN1CCOCC1 [Foretinib] (partner 0.25 µM) ?
OUT: f

IN: Also Cc1cnc(-c2cnc(NCCNc3ccc(C#N)cn3)nc2-c2ccc(Cl)cc2Cl)[nH]1 + O=C(c1cc(Cc2n[nH]c(=O)c3ccccc23)ccc1F)N1CCN(C(=O)C2CC2)CC1 [Olaparib] (partner 8 µM) ?
OUT: t

IN: Also Cc1cnc(-c2cnc(NCCNc3ccc(C#N)cn3)nc2-c2ccc(Cl)cc2Cl)[nH]1 + COc1cc2c(Oc3ccc(NC(=O)C4(C(=O)Nc5ccc(F)cc5)CC4)cc3F)ccnc2cc1OCCCN1CCOCC1 [Foretinib] (partner 0.25 µM) ?
OUT: f

###

- Test system: ChaGo-K-1
- assay_explanation: relative viability (nuclei count vs DMSO), 5 days (fraction); higher = more cells survive
- details: first compound 0.8 µM
Could you mark each record Fulfilled if its relative viability falls strictly under 0.5, and Not fulfilled if it equals or exceeds it?

IN: Quick check: does O=c1[nH]c2ccccc2n1C1CCN(CCCC(c2ccc(F)cc2)c2ccc(F)cc2)CC1 [Pimozide] + C[C@@H](Oc1cc(-c2cnn(C3CCNCC3)c2)cnc1N)c1c(Cl)ccc(F)c1Cl [Crizotinib] (partner 1 µM) have relative viability under 0.5?
OUT: Not fulfilled

IN: Also Cc1cnc(-c2cnc(NCCNc3ccc(C#N)cn3)nc2-c2ccc(Cl)cc2Cl)[nH]1 + NC(=O)Nc1cc(-c2cccc(F)c2)sc1C(=O)N[C@H]1CCCNC1 [AZD7762] (partner 0.2 µM) ?
OUT: Not fulfilled

IN: Also Cc1cnc(-c2cnc(NCCNc3ccc(C#N)cn3)nc2-c2ccc(Cl)cc2Cl)[nH]1 + CC(C)C[C@H](NC(=O)[C@H](Cc1ccccc1)NC(=O)c1cnccn1)B(O)O [Bortezomib] (partner 0.002 µM) ?
OUT: Not fulfilled

IN: Also O=c1[nH]c2ccccc2n1C1CCN(CCCC(c2ccc(F)cc2)c2ccc(F)cc2)CC1 [Pimozide] + CCNC(=O)c1noc(-c2cc(C(C)C)c(O)cc2O)c1-c1ccc(CN2CCOCC2)cc1 [Luminespib] (partner 0.01 µM) ?
OUT: Fulfilled

IN: Also O=c1[nH]c2ccccc2n1C1CCN(CCCC(c2ccc(F)cc2)c2ccc(F)cc2)CC1 [Pimozide] + CC1(C)CCC(c2ccc(Cl)cc2)=C(CN2CCN(c3ccc(C(=O)NS(=O)(=O)c4ccc(N[C@H](CCN5CCOCC5)CSc5ccccc5)c(S(=O)(=O)C(F)(F)F)c4)cc3)CC2)C1 [Navitoclax] (partner 0.5 µM) ?
OUT: Not fulfilled

IN: Also O=c1[nH]c2ccccc2n1C1CCN(CCCC(c2ccc(F)cc2)c2ccc(F)cc2)CC1 [Pimozide] + CS(=O)(=O)N1CCN(Cc2cc3nc(-c4cccc5[nH]ncc45)nc(N4CCOCC4)c3s2)CC1 [Pictilisib] (partner 1 µM) ?
OUT: Not fulfilled
